All figures here come from patent US10703756B2.

Biological target: JAK3 enzyme (Homo sapiens)
Sequence (P52333 1-1124): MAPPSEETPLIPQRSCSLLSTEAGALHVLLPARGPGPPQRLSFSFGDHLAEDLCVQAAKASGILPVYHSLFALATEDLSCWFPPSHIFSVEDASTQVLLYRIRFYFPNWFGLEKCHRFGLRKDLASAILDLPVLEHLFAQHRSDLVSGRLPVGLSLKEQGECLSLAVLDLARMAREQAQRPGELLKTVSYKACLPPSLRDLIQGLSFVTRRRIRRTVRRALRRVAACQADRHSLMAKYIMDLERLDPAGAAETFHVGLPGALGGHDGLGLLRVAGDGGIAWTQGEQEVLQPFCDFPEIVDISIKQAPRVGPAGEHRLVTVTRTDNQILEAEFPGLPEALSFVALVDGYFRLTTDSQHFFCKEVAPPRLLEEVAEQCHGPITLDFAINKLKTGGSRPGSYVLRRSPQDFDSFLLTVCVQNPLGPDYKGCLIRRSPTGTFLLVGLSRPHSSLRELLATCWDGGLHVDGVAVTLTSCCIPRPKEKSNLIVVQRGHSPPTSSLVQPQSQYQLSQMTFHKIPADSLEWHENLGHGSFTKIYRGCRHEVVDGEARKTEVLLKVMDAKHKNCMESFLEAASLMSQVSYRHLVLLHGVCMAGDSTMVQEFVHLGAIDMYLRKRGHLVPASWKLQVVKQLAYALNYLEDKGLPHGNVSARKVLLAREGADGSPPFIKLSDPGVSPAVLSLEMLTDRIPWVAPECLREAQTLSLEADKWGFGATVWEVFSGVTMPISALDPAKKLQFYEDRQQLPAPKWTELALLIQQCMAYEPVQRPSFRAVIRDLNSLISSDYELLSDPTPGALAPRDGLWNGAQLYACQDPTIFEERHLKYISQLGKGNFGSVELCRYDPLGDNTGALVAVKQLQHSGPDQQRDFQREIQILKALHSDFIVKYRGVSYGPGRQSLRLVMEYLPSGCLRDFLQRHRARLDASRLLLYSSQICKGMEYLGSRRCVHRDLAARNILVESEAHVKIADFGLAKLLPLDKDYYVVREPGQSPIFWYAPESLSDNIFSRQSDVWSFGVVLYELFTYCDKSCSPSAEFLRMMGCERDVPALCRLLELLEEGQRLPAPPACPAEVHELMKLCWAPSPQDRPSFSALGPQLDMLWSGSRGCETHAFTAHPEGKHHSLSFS
Test: JAK Caliper Enzyme Assay at 4 μM ATP
Type: biochemical
Provide the reported IC50 of each item.
Express your answer in nM, writing the number without its unit.

I am curious: what IC50 value has been reported for "C=CC(=O)N1CCN(c2cnc3[nH]cc(C(=O)N[C@H](CO)CCC)c3n2)CC1(C)C" ? 7.35

Fill blank: measured IC50 of the molecule "C=CC(=O)N1CCC(C)(Nc2cnc3[nH]cc(C(=O)NCCCC(F)(F)F)c3n2)CC1" is ____. 0.307

// lookup IC50 for C=CC(=O)N1CC[C@@H](Nc2cnc3[nH]cc(C(=O)NCC)c3n2)C1 (single isomer, unassigned) [Example 243] 0.586

What does the data say about its IC50? Entry: "C=CC(=O)N1CCC(Oc2cnc3[nH]cc(-c4ncn(C(C)C)n4)c3n2)CC1" 5.89

For the molecule shown here, C=CC(=O)N1CCC[C@H]1COc1cnc2[nH]cc(C(=O)N[C@@H](C)COC)c2n1 (single isomer, unassigned) , give the reported IC50. 0.355

Need IC50 of "C=CC(=O)N1CCC(Oc2cnc3[nH]cc(C(=O)N[C@@H](C)COC)c3n2)CC1" , thanks. 0.229

Name the reported IC50 value associated with the molecule "C=CC(=O)N(C)C1CN(c2cnc3[nH]cc(C(=O)NCC)c3n2)C1" 6.26
